Consider the following compounds and their measured IC50 readings.
- assaySystem: muscarinic acetylcholine receptors
- measurementNotes: inhibition of specific binding of ^3 H-Oxotremorine-M (^3 H-Oxo) to rat cortex
- reportedConditions: ^3 H-Oxotremorine 1.0 nM, 30 min, 25° C.
Respond numerically; units are µM and should not be typed.

Reference set, count: 10
CCCCSc1nccnc1OCC[N+](C)(C)C = 0.021
FC(F)(F)Oc1ccc(CSc2nccnc2O[C@H]2CN3CCC[C@@H]2C3)cc1 (relative stereo) = 0.0062
C(=Cc1ccccc1)CSc1nccnc1O[C@H]1CN2CCC[C@@H]1C2 (relative stereo) = 0.0091
FC(F)(F)CSc1cncc(O[C@H]2CN3CCC[C@@H]2C3)n1 (relative stereo) = 0.06
CSc1nccnc1OC1CN2CCC1CC2 (racemic) = 0.074
CCCSc1nccnc1O[C@H]1CN2CCC[C@@H]1C2 (relative stereo) = 0.0017
CCCCCSc1nccnc1O[C@H]1CN2CCC[C@@H]1C2 (relative stereo) = 0.0044
CC(C)=CCCSc1nccnc1O[C@H]1CN2CCC[C@@H]1C2 (relative stereo) = 0.0081
c1cnc(OC2CN3CCC2CC3)cn1 (racemic) = 1.04
C/C=C/CSc1nccnc1O[C@H]1CN2CCC[C@@H]1C2 (relative stereo) = 0.002

Consider COCCSc1nccnc1O[C@H]1CN2CCC[C@@H]1C2 (relative stereo) . Its measured IC50 is 0.0032

Consider CCSc1nccnc1OC1CN2CCC1CC2 (racemic) . Its measured IC50 is 0.026

Consider CC(C)CCSc1nccnc1O[C@H]1CN2CCC[C@@H]1C2 (relative stereo) . Its measured IC50 is 0.0013

Consider CCCCCCCSc1nccnc1OC1CN2CCC1CC2 (racemic) . Its measured IC50 is 0.039

Consider c1cnc(O[C@H]2CN3CCC[C@@H]2C3)cn1 . Its measured IC50 is 0.026

Consider CCCCCSc1nccnc1OC1CN2CCC1CC2 (racemic) . Its measured IC50 is 0.016

---

- assaySystem: muscarinic acetylcholine receptors
- measurementNotes: inhibition of specific binding of ^3 H-Oxotremorine-M (^3 H-Oxo) to rat cortex
- reportedConditions: ^3 H-Oxotremorine 1.0 nM, 30 min, 25° C.
pIC50: −log10 of the molar value.
Use 7 as the dividing line for pIC50, with the line itself on the MET side and lower values as NOT MET.

C[N+](C)(C)CCOc1cnccn1 = NOT MET
CN(C)CCOc1cnccn1 = NOT MET
CCOc1nccnc1OC1CN2CCC1CC2 (racemic) = MET
CCCCCOc1nccnc1OC1CN2CCC1CC2 (racemic) = MET
FC(F)(F)CSc1nccnc1O[C@H]1CN2CCC[C@@H]1C2 (relative stereo) = MET

Now look at this one.
Prompt: API: above_or_equal(metric=pIC50, cutoff=7) for item Cc1nccnc1O[C@H]1CN2CCC[C@@H]1C2 (relative stereo)
Response: NOT MET

---

- assaySystem: muscarinic acetylcholine receptors
- measurementNotes: inhibition of specific binding of ^3 H-Oxotremorine-M (^3 H-Oxo) to rat cortex
- reportedConditions: ^3 H-Oxotremorine 1.0 nM, 30 min, 25° C.
- Procedure: The pharmacological properties of the compounds of the invention can be illustrated by determining their capability to inhibit the specific binding of ^3 H-Oxotremorine-M (^3 H-Oxo). Birdsdall N. J. M., Hulme E. C., and Burgen A. S. V. (1980). […] ^3 H-Oxo labels muscarinic receptor in the CNS (with a preference for agonist domains of the receptors). […] Using the present experimental conditions only the high and medium affinity sites are determined. […]
assayMetric: IC50

Reference set, count: 2
C=CCSc1nccnc1O[C@H]1CN2CCC[C@@H]1C2 (relative stereo) = 0.34 nM
CN1[C@@H]2CC[C@H]1C[C@@H](Oc1cnccn1)C2 = 180 nM

Reading of IC50 for CCCSc1cncc(O[C@H]2CN3CCC[C@@H]2C3)n1 (relative stereo) with muscarinic acetylcholine receptors: 10 nM

Reading of IC50 for CCCCSc1nccnc1O[C@H]1CN2CCC[C@@H]1C2 (relative stereo) with muscarinic acetylcholine receptors: 2.2 nM
